# subject of test: Mitogen-activated protein kinase 3 (Homo sapiens, UniProt P27361)
# protocol notes: Inhibition of N-terminus FLAG-tagged Erk1 expressed in baculovirus expression system using [gamma-33P]-ATP measured after 60 mins by scintillation counting
readout label: IC50

IC50 of "CC(C)(N)C(=O)NCCn1ccc2ncnc(Nc3ccc(Oc4cccc5sncc45)c(Cl)c3)c21" , assay on Mitogen-activated protein kinase 3 (Homo sapiens, UniProt P27361), is > 10 µM

---

# subject of test: Platelet-derived growth factor receptor alpha (Homo sapiens, UniProt P16234)
# Sequence (P16234 whole entry): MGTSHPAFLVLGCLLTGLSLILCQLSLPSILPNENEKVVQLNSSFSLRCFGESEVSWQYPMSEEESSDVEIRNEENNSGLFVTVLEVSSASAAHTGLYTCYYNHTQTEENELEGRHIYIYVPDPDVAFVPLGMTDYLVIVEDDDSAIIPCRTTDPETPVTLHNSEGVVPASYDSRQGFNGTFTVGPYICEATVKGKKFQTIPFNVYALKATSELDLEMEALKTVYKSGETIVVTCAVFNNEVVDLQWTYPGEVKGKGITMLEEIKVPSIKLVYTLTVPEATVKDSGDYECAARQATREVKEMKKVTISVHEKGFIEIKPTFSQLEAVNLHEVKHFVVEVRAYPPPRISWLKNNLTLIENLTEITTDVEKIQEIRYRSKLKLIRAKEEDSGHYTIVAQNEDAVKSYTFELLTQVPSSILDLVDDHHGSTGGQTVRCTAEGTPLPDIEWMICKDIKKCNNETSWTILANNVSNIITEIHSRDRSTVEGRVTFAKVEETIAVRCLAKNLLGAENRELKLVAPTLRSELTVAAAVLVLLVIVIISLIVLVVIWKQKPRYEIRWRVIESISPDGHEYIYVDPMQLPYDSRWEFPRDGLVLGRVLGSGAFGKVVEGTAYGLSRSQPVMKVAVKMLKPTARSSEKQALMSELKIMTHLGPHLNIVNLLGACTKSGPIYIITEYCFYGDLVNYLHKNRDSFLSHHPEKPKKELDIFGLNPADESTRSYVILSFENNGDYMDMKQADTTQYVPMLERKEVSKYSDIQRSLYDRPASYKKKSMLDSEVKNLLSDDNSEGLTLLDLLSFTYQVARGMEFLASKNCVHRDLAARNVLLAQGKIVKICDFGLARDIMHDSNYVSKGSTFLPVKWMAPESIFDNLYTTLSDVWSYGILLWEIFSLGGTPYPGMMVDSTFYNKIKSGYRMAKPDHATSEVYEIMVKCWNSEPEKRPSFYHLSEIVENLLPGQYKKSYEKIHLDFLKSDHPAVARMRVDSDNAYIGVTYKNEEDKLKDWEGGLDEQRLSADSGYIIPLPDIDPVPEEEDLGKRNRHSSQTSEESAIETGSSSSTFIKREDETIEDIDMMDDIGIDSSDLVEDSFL
readout label: IC50

What the record says about "CC(C)(N)C(=O)NCCn1ccc2ncnc(Nc3ccc(Oc4cccc5sncc45)c(Cl)c3)c21" : IC50 is > 10 µM

---

# subject of test: Fibroblast growth factor receptor 1 (Homo sapiens, UniProt P11362)
# Sequence (P11362 whole entry): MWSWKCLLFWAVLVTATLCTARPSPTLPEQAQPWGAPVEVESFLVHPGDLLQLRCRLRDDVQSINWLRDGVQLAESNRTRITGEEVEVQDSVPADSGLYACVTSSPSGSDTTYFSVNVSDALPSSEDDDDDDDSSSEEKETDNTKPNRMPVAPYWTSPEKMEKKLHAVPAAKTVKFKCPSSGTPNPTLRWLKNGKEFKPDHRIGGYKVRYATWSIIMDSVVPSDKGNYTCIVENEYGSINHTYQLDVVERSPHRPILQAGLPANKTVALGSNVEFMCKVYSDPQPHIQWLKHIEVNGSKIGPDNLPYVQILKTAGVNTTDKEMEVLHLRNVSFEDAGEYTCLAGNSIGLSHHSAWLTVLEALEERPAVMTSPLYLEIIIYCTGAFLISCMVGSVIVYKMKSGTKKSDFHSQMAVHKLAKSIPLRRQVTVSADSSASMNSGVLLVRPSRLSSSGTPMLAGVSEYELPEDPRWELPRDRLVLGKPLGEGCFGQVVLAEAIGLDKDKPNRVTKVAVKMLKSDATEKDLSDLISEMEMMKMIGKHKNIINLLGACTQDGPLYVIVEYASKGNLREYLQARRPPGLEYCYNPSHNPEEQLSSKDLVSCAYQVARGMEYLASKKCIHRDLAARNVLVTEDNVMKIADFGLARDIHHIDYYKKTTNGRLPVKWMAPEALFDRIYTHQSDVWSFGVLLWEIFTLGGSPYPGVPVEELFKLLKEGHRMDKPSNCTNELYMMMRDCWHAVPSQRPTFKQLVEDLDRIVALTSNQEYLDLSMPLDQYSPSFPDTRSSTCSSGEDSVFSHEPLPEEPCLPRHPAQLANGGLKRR
readout label: IC50

IC50 of "CC(C)(N)C(=O)NCCn1ccc2ncnc(Nc3ccc(Oc4cccc5sncc45)c(Cl)c3)c21" , assay on Fibroblast growth factor receptor 1 (Homo sapiens, UniProt P11362), is > 10 µM

---

# protocol notes: Metabolic stability in human liver microsomes at 1 umol/L after 20 mins by HPLC analysis
# Type: ADME, Microsome
# assay conditions: read-out: Stability
Label rule met when microsomal CLint at 1 µM >= 100 µL/min/mg; otherwise rule not met.

Determine whether this compound has microsomal CLint at 1 µM no lower than 100 µL/min/mg: "CC(C)(N)C(=O)NCCn1ccc2ncnc(Nc3ccc(Oc4cccc5sncc45)c(Cl)c3)c21"
rule not met

Determine whether this compound has microsomal CLint at 1 µM no lower than 100 µL/min/mg: "OCCn1ccc2ncnc(Nc3ccc(Oc4cccc5[nH]ncc45)c(Cl)c3)c21"
rule met

Determine whether this compound has microsomal CLint at 1 µM no lower than 100 µL/min/mg: "CC(C)(O)C(=O)NCCn1ccc2ncnc(Nc3ccc(Oc4cccc5sncc45)c(Cl)c3)c21"
rule met

Next:
Determine whether this compound has microsomal CLint at 1 µM no lower than 100 µL/min/mg: "CC(C)(C(=O)NCCn1ccc2ncnc(Nc3ccc(Oc4cccc5sncc45)c(Cl)c3)c21)S(C)(=O)=O"
rule met

Determine whether this compound has microsomal CLint at 1 µM no lower than 100 µL/min/mg: "OCCn1ccc2ncnc(Nc3ccc(Oc4cccc5sccc45)c(Cl)c3)c21"
rule met

---

# subject of test: Mast/stem cell growth factor receptor Kit (Homo sapiens, UniProt P10721)
pIC50: −log10 of the molar value.
readout label: pIC50

pIC50 of "CC(C)(N)C(=O)NCCn1ccc2ncnc(Nc3ccc(Oc4cccc5sncc45)c(Cl)c3)c21" , assay on Mast/stem cell growth factor receptor Kit (Homo sapiens, UniProt P10721), is < 5.00

---

# subject of test: Proto-oncogene tyrosine-protein kinase Src (Homo sapiens)
# Sequence (P12931 2-536 limits assumed): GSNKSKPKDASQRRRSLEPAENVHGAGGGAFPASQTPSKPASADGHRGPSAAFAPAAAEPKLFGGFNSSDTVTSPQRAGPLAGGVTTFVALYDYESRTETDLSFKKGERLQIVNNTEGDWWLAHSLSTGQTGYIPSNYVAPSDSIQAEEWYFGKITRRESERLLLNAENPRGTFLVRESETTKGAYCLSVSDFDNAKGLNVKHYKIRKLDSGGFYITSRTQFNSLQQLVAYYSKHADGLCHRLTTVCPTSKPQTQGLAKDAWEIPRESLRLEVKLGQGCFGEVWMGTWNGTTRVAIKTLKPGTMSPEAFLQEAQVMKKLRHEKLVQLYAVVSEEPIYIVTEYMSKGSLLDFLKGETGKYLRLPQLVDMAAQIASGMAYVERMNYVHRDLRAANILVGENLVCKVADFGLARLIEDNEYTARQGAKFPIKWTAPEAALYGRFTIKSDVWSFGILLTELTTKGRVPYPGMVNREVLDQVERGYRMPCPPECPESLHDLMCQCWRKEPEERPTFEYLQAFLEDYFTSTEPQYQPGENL
readout label: pIC50
// scale note: pIC50 = -log10(conc_M); give the bare number

pIC50 of "CC(C)(N)C(=O)NCCn1ccc2ncnc(Nc3ccc(Oc4cccc5sncc45)c(Cl)c3)c21" , assay on Proto-oncogene tyrosine-protein kinase Src (Homo sapiens), is 5.08

---

# subject of test: Receptor tyrosine-protein kinase erbB-2 (Homo sapiens, UniProt P04626)
# Sequence (P04626 whole entry): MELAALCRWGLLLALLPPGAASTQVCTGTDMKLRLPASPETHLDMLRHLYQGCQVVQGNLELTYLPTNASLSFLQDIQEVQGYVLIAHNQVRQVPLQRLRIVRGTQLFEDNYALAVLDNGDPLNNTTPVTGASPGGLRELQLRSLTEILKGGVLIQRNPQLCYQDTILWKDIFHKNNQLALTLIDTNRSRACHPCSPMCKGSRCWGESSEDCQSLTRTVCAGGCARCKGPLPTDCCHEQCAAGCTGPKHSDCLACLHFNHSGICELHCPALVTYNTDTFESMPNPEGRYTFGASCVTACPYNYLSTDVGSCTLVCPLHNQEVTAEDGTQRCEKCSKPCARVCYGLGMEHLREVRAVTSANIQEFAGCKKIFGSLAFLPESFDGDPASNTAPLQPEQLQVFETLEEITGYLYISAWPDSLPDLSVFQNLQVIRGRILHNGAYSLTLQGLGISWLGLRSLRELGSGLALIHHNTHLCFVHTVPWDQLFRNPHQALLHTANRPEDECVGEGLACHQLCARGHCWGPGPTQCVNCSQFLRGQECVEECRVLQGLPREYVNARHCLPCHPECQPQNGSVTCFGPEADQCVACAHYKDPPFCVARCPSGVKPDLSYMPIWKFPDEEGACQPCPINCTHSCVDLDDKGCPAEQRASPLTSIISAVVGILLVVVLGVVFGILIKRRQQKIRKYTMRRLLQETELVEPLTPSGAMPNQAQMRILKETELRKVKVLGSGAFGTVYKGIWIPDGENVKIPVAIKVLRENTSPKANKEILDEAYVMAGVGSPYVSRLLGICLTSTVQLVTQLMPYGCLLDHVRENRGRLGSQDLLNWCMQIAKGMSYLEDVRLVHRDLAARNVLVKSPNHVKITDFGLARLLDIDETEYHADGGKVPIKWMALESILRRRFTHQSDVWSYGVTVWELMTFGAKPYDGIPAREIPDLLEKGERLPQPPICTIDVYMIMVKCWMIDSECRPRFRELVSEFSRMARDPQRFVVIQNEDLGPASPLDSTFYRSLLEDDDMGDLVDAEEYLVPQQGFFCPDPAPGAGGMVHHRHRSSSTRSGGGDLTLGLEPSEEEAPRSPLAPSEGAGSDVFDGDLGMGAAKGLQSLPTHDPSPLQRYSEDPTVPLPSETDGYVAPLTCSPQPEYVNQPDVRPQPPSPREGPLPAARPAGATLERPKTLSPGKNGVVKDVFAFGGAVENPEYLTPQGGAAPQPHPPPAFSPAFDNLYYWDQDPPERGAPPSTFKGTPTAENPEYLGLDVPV
# protocol notes: Pseudo-irreversible inhibition of N-terminus peptide-tagged human recombinant HER2 expressed using baculovirus infection system using [gamma-33P]-ATP preincubated with compound for 5 mins at 10 times IC50 concentration measured after 10 mins by scintillation counting
Activity calls are given as the source filed them. The calls are words filed in the database; no cut-off is given here.
readout label: inhibition

Consider the worked cases shown below.
What the record says about "O=C1NCc2c(Oc3ccc(Nc4ncnc5ccn(CCO)c45)cc3Cl)cccc21" : inhibition is inactive

What the record says about "Cn1ncc2c(Oc3ccc(Nc4ncnc5ccn(CCO)c45)cc3Cl)cccc21" : inhibition is inactive

What the record says about "OCCn1ccc2ncnc(Nc3ccc(Oc4cccc5[nH]ccc45)c(Cl)c3)c21" : inhibition is Active

What the record says about "O=C1Cc2cc(Oc3ccc(Nc4ncnc5ccn(CCO)c45)cc3Cl)ccc2N1" : inhibition is inactive

What the record says about "O=C1NCc2cc(Oc3ccc(Nc4ncnc5ccn(CCO)c45)cc3Cl)ccc21" : inhibition is inactive

Next:
What the record says about "O=C1NCc2cccc(Oc3ccc(Nc4ncnc5ccn(CCO)c45)cc3Cl)c21" : inhibition is inactive

What the record says about "O=C1Cc2c(cccc2Oc2ccc(Nc3ncnc4ccn(CCO)c34)cc2Cl)N1" : inhibition is Active

---

# subject of test: Epidermal growth factor receptor (Homo sapiens)
# protocol notes: Inhibition of N-terminus peptide-tagged human recombinant EGFR expressed using baculovirus infection system using [gamma-33P]-ATP preincubated with compound for 5 mins measured after 10 mins by scintillation counting
pIC50: −log10 of the molar value.
Classify on pIC50 using low band (below 7), middle band (7 to below 8), high band (8 or more)

Which pIC50 category applies to "CC(=O)NCCn1ccc2ncnc(Nc3ccc(Oc4cccc5sncc45)c(Cl)c3)c21" here?
high band

Which pIC50 category applies to "OCCn1ccc2ncnc(Nc3ccc(Oc4cccc(C(F)(F)F)c4)c(Cl)c3)c21" here?
middle band

Which pIC50 category applies to "CC(C)(C)C(=O)NCCn1ccc2ncnc(Nc3ccc(Oc4cccc5sncc45)c(Cl)c3)c21" here?
middle band

Which pIC50 category applies to "CC(C)(C)NC(=O)c1cccc(Oc2ccc(Nc3ncnc4ccn(CCO)c34)cc2Cl)c1" here?
middle band

---

# subject of test: Epidermal growth factor receptor (Homo sapiens)
# protocol notes: Inhibition of N-terminus peptide-tagged human recombinant EGFR expressed using baculovirus infection system using [gamma-33P]-ATP preincubated with compound for 5 mins measured after 10 mins by scintillation counting
readout label: pIC50
// scale note: pIC50 = -log10(conc_M); give the bare number

What the record says about "Cn1ncc2c(Oc3ccc(Nc4ncnc5ccn(CCO)c45)cc3Cl)cccc21" : pIC50 is 7.44

---

Recorded pIC50, one value per entry.
# subject of test: Epidermal growth factor receptor (Homo sapiens, UniProt P00533)
# Sequence (P00533 whole entry): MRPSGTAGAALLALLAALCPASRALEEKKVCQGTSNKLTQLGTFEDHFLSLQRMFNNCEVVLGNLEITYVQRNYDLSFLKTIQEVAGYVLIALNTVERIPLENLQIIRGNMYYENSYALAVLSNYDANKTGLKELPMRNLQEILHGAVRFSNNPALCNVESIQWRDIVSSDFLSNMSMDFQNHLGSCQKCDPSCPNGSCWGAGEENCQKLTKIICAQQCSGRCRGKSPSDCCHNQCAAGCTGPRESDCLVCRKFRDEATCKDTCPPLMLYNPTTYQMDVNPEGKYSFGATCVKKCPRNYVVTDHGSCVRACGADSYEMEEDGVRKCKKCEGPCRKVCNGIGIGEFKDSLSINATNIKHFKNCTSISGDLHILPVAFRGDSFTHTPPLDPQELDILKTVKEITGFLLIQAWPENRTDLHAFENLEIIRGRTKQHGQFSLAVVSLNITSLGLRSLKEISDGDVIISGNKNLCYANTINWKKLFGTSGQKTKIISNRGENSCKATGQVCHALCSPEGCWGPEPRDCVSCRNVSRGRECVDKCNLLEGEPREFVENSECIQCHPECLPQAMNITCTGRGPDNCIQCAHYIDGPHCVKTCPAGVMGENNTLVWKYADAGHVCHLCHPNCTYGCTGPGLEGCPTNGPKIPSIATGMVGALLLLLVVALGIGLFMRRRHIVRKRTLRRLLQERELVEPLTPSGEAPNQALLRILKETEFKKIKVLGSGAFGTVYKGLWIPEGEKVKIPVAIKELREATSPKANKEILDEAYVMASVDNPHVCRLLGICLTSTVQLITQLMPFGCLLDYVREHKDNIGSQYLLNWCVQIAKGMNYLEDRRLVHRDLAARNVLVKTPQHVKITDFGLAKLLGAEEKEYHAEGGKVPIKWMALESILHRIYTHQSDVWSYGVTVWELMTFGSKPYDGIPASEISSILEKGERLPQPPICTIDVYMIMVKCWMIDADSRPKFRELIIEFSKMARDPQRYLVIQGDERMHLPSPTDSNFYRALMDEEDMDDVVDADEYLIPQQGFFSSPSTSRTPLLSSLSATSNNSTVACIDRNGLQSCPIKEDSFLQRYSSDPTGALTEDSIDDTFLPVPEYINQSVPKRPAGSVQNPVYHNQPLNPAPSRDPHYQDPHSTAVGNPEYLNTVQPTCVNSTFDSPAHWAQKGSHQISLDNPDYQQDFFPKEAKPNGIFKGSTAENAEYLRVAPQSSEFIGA
# protocol notes: Inhibition of N-terminus peptide-tagged human recombinant EGFR expressed using baculovirus infection system using [gamma-33P]-ATP preincubated with compound for 5 mins measured after 10 mins by scintillation counting
// scale note: pIC50 = -log10(conc_M); give the bare number

Consider the worked cases shown below.
What the record says about "CC(C)(O)C(=O)NCCn1ccc2ncnc(Nc3ccc(Oc4cccc5sncc45)c(Cl)c3)c21" : pIC50 is 8.15

What the record says about "O=C1NCc2cc(Oc3ccc(Nc4ncnc5ccn(CCO)c45)cc3Cl)ccc21" : pIC50 is 6.29

What the record says about "O=C(NCCn1ccc2ncnc(Nc3ccc(Oc4cccc5sncc45)c(Cl)c3)c21)[C@@H]1CCCN1" : pIC50 is 8.52

What the record says about "O=C1NCc2c(Oc3ccc(Nc4ncnc5ccn(CCO)c45)cc3Cl)cccc21" : pIC50 is 6.05

What the record says about "CC(C)(C(=O)NCCn1ccc2ncnc(Nc3ccc(Oc4cccc5sncc45)c(Cl)c3)c21)S(C)(=O)=O" : pIC50 is 8.26

What the record says about "O=C1Cc2cc(Oc3ccc(Nc4ncnc5ccn(CCO)c45)cc3Cl)ccc2N1" : pIC50 is 6.02

Next:
What the record says about "CC(C)(CO)C(=O)NCCn1ccc2ncnc(Nc3ccc(Oc4cccc5sncc45)c(Cl)c3)c21" : pIC50 is 8.15

What the record says about "O=C1Cc2ccc(Oc3ccc(Nc4ncnc5ccn(CCO)c45)cc3Cl)cc2N1" : pIC50 is 5.64

What the record says about "OCCn1ccc2ncnc(Nc3ccc(Oc4cccc5[nH]ncc45)c(Cl)c3)c21" : pIC50 is 8.72

Hey, just so you know, these numbers are from ChEMBL document CHEMBL2046372.
